Origin of the recorded values: patent US20200317779A1

kon overview
# target system: recombinant cynomolgus monkey CD3ε/δ heterodimer (cynomolgus monkey) (UniProt Q95LI5)
# Sequence (Q95LI5 22-117, stated change not applied, chain 1 of 2): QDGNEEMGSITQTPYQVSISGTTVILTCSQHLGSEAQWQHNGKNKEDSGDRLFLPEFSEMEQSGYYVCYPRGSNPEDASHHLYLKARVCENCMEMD
# Sequence (Q95LI8 22-105, stated change not applied, chain 2 of 2, further chain): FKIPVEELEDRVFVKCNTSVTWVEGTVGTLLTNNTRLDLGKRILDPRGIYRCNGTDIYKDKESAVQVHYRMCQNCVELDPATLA
# assay overview: BLI (Octet), antigen on anti-Penta His sensor, antibody 50 nM
Entry format: amount then unit.

Study these solved cases before continuing.
D07 (antibody, human IgG1, lambda, L234A L235A, V domains shown) VH: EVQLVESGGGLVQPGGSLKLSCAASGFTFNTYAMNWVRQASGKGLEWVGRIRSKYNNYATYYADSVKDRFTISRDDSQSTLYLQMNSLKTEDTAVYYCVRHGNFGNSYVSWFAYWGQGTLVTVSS VL: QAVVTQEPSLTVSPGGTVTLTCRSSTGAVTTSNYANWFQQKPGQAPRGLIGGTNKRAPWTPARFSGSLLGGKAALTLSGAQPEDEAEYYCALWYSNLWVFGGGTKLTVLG ... 143000 M⁻¹ s⁻¹
G16 (antibody, human IgG1, lambda, L234A L235A, V domains shown) VH: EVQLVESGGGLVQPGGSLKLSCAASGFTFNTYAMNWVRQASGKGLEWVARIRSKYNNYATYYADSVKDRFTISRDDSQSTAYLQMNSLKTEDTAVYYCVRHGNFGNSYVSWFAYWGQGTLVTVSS VL: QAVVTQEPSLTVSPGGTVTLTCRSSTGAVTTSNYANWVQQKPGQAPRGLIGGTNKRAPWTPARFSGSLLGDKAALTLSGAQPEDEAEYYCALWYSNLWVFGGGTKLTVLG ... 195000 M⁻¹ s⁻¹
H16 (antibody, human IgG1, lambda, L234A L235A, V domains shown) VH: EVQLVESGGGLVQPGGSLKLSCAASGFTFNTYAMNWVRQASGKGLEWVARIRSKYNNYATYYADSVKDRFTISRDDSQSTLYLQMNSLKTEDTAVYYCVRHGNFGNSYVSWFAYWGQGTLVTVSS VL: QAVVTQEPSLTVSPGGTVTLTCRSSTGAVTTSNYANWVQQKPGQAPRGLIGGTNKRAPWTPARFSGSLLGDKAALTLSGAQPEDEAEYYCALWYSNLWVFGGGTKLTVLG ... 182000 M⁻¹ s⁻¹
G15 (antibody, human IgG1, lambda, L234A L235A, V domains shown) VH: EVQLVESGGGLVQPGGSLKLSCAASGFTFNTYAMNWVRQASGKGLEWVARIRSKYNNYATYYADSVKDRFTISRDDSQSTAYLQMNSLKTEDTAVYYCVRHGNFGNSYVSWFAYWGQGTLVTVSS VL: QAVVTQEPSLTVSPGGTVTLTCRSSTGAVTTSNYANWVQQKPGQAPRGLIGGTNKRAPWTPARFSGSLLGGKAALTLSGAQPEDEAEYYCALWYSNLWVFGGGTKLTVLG ... 269000 M⁻¹ s⁻¹

Shift focus to the following entry.
Query D15 (antibody, human IgG1, lambda, L234A L235A, V domains shown) VH: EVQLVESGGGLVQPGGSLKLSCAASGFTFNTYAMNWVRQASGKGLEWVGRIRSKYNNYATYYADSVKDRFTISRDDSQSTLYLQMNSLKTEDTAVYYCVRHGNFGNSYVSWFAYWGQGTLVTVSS VL: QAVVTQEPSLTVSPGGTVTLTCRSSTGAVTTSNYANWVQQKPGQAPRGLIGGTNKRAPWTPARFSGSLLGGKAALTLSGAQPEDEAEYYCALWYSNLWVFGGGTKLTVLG yields kon of 437000 M⁻¹ s⁻¹
